Known normalized growth of a selection of compounds
- assay.details: chemical genetic growth profiling, strain panel (AID 1159580);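 also: tested at 20 µM; growth read once vehicle control cultures reached saturation at 30 °C; 1 = growth at the plate median or of vehicle wells; lower values mean less growth of the strain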
- condition.info: S. cerevisiae deletion strains, growth OD, locus YGL227W, strain vid30, hits give low values
Hit rate of the full screen: of about 5,500 compounds, about 2,000 (36%) were called active. About 18% were inconclusive and are not listed. The list shows a part of the results.
measured.parameter: normalized growth

compound="COC(=O)[C@@H]1OC(=O)C2OC23[C@@]1(C)CCC1[C@]2(C)C(C[C@@H](O)[C@]13C)C(C)(C)[C@H](OC(C)=O)C[C@@H]2OC(C)=O (stereo partly drawn)" quantitative_result=1.01
compound="O=C(O)C1CCCNC1 (stereo not drawn)" quantitative_result=1.02
compound="COc1ccc2c(c1)OCC(Cc1ccc(OC)c(OC)c1)C2=O (stereo not drawn)" quantitative_result=0.974
